Source of measurements: patent US8853392B2

- target_desc: rat mGluR5 (Rattus norvegicus)
- Construct: expressed in transfected cells; host or cells: human embryonic kidney (HEK) cells
- assay_comment: potentiation of mGluR5 response to glutamate, Ca2+ fluorescence (FDSS) in HEK cells transfected with rat mGluR5
- Format: cell-based
- assay_setup: HEK293; maximum extent of potentiation, normalized to maximal response to glutamate; SAR tables; read-out: % Glu Max
Class 1.0: Emax at least 90%. Class 0.0: Emax below 90%.

Recorded results for 5 compounds are shown here.
O=C(c1ccc(C#Cc2ccc(F)c(F)c2)cc1)N1CCC(O)CC1 [Compound 19d] ... 0.0
O=C(c1ccc(C#Cc2ccccc2F)cc1)N1CC(O)C1 [Compound 20m] ... 1.0
O=C(c1ccc(C#Cc2ccccc2)cc1)N1CC(O)C1 ... 0.0
Cc1cc(C#Cc2ccc(C(=O)N3CCC(O)CC3)cc2)ccc1F [Compound 19f] ... 0.0
O=C(c1ccc(C#Cc2ccc(F)cc2F)cc1)N1CCC(O)CC1 [Compound 19g] ... 0.0

Turning now to a further record.
**Query** Could you verify whether the entry CCCC1(O)CN(C(=O)c2ccc(C#Cc3ccccc3)cc2)C1 shows Emax of no less than 90%?
**Result** 0.0

###

- target_desc: rat mGluR5 (Rattus norvegicus, UniProt P31424)
- Construct: expressed in transfected cells; host or cells: human embryonic kidney (HEK) cells
- Sequence (P31424 21-1203): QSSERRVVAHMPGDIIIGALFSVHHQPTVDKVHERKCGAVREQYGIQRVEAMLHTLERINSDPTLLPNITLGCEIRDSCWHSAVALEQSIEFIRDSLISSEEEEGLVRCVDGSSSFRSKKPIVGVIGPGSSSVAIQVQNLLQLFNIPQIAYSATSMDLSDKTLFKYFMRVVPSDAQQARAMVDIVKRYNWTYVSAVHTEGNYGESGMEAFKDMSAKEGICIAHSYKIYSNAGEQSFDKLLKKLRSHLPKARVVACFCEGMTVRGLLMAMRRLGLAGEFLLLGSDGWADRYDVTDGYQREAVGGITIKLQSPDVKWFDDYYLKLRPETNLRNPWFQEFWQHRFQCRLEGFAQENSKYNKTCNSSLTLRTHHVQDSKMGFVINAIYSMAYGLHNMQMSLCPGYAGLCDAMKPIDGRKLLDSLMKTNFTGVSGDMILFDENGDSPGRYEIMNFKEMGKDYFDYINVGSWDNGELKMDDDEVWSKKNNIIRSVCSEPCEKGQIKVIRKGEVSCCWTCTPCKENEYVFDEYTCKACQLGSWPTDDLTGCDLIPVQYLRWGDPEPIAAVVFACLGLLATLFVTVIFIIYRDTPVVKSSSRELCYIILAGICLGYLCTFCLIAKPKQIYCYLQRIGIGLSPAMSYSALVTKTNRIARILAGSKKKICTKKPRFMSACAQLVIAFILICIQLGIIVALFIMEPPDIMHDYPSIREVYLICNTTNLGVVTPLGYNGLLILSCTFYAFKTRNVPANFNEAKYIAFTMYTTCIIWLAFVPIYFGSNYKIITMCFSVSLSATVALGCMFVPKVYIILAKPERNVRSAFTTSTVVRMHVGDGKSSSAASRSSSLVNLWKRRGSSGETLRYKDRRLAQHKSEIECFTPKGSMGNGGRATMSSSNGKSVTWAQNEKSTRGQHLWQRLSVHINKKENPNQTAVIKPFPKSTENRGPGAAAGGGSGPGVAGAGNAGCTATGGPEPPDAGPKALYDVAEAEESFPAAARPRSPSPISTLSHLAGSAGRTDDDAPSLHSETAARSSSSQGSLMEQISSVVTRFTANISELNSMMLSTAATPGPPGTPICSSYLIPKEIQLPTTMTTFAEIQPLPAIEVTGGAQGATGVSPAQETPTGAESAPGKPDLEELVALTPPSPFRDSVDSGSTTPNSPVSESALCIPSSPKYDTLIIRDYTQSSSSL
- assay_comment: potentiation of mGluR5 response to glutamate, Ca2+ fluorescence (FDSS) in HEK cells transfected with rat mGluR5
- Assay type: cell-based
- assay_setup: Table 1, EC50 for potentiating the mGluR5 receptor; unit inferred; read-out: EC50
Measured EC50, listed per entry for reference.
Field format: number, assumed nM, no unit text.

// known answers, use as guide
O=C(c1ccc(C#Cc2ccc(F)cc2)cc1)N1CCC(CO)CC1 [Compound 20g] ... 26.1
O=C(c1ccc(C#Cc2ccccc2)cc1)N1CCC(O)(c2cccc(F)c2)CC1 [drawing 160] ... 1770

**Query** Reported EC50, molecule O=C(c1ccc(C#CC2CCCCC2)cc1)N1CCC(O)CC1 [Compound 19m] : ____
**Result** 1870

**Query** Reported EC50, molecule O=C(c1ccc(C#Cc2ccccn2)cc1)N1CCC(O)CC1 [Compound 19k] : ____
**Result** 2450

**Query** Reported EC50, molecule CC1CN(C(=O)c2ccc(C#Cc3ccccc3)cc2)CC(C)O1 (centres unmarked) : ____
**Result** 88.9

**Query** Reported EC50, molecule COc1ccc(C2(O)CCN(C(=O)c3ccc(C#Cc4ccccc4)cc3)CC2)cc1 [drawing 173] : ____
**Result** 2630

**Query** Reported EC50, molecule O=C(c1ccc(C#Cc2ccc(F)cc2)cc1)N1CC(O)C1 [Compound 20o] : ____
**Result** 162

**Query** Reported EC50, molecule O=C(c1ccc(C#Cc2ccccc2)cc1)n1c(=O)n(C2CCNCC2)c2cc(Cl)ccc21 : ____
**Result** 3720

**Query** Reported EC50, molecule O=C(c1ccc(C#Cc2ccccc2F)cc1)N1CC(O)C1 [Compound 20m] : ____
**Result** 187

**Query** Reported EC50, molecule O=C(c1ccc(C#Cc2ccccc2F)cc1)N1CCC(CO)CC1 [Compound 20e] : ____
**Result** 23.6

**Query** Reported EC50, molecule O=C(NCCc1ccc(Br)cc1)c1ccc(C#Cc2ccccc2)cc1 : ____
**Result** 237
